Test: In vivo pharmacokinetic study
Set-up: species or system Sprague–Dawley rats
Conditions: male, Sprague-Dawley, rat, plasma, sc, 0.333 mg
MEASURED PARAMETER: half-life (h)
Numbers only, in h.

Request: Give the measured half-life of `O=C(/C=C/c1cccc(S(=O)(=O)Nc2ccccc2)c1)NO` .
Result: 4.66

====

Experiment: In vivo pharmacokinetic study
Set-up: species or system Sprague–Dawley rats
Details: male, Sprague-Dawley, rat, plasma, sc, 0.333 mg
MEASURED PARAMETER: AUC(0-t) (µg·h/mL)
Numbers only, in µg·h/mL.

Request: What AUC(0-t) value was documented for this molecule, `O=C(/C=C/c1cccc(S(=O)(=O)Nc2ccccc2)c1)NO` ?
Result: 62
